Data origin: the supplement of paper PMC5998384

# Test system: HeLa Kyoto;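 further: HeLa Kyoto cells arrested at G1/S by double thymidine block, proteins quantified by TMT10plex mass spectrometry in mild NP-40 versus SDS extracts, three biological replicates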
# ASSAY_METHOD_TEXT: solubility in G1/S (NP-40 vs SDS abundance) (log2 ratio); higher = more soluble
# EXPERIMENTAL_CONDITIONS: cell cycle stage: G1/S

- BIOPOLYMER_SEQUENCE: "MLRPAGLWRLCRRPWAARVPAENLGRREVTSGVSPRGSTSPRTLNIFDRDLKRKQKNWAARQPEPTKFDYLKEEVGSRIADRVYDIPRNFPLALDLGCGRGYIAQYLNKETIGKFFQADIAENALKNSSETEIPTVSVLADEEFLPFKENTFDLVVSSLSLHWVNDLPRALEQIHYILKPDGVFIGAMFGGDTLYELRCSLQLAETEREGGFSPHISPFTAVNDLGHLLGRAGFNTLTVDTDEIQVNYPGMFELMEDLQGMGESNCAWNRKALLHRDTMLAAAAVYREMYRNEDGSVPATYQIYYMIGWKYHESQARPAERGSATVSFGELGKINNLMPPGKKSQ [NDUFAF5]"
  TESTED_ON: "HeLa Kyoto"
  solubility in G1/S (log2): 0.329
